// MIC lookup, one value per entry
# Test system: Staphylococcus aureus
# measurement-description: Aerobic antibacterial MIC, standard dilution technique
# Format: cell-based
# experimental-conditions: clinical isolate, value in parentheses, read-out: Minimum inhibitory concentration (MIC) Staphylococcus aureus
Provide the reading as a plain figure in µM.

[
  {
    "compound": "O=C(NNC(=O)[C@H](Cc1c[nH]c2ccccc12)NC(=O)c1cnccn1)c1ccncc1 [C00017]",
    "experimental-system": "Staphylococcus aureus",
    "obs-value": 37.3
  },
  {
    "compound": "O=C(N[C@@H](Cc1c[nH]c2ccccc12)C(=O)O)c1cnccn1 [C00010]",
    "experimental-system": "Staphylococcus aureus",
    "obs-value": 206
  }
]

Now consider a different compound.
Entry O=C(N[C@@H](Cc1ccccc1)C(=O)O)c1cnccn1 [C00008] — recorded MIC = 236

---

// melting point lookup, one value per entry

Worked cases, melting point given:
[
  {
    "compound": "O=C(NNC(=O)C(Cc1ccccc1)NC(=O)c1cnccn1)c1ccncc1 (centres unmarked) [12f]",
    "melting point": "143 to 145 °C"
  },
  {
    "compound": "CC[C@@H](C)[C@H](NC(=O)c1cnccn1)C(=O)O [10c, (Pyrazine-2-carbonyl)-L-alloisoleucine]",
    "melting point": "164 to 166 °C"
  },
  {
    "compound": "O=C(N[C@@H](Cc1c[nH]c2ccccc12)C(=O)O)c1cnccn1 [10g, (Pyrazine-2-carbonyl)-L-tryptophan]",
    "melting point": "127 to 129 °C"
  }
]

Entry CC(C)[C@H](NC(=O)c1cnccn1)C(=O)NNC(=O)c1ccncc1 [12b] — recorded melting point = 175 to 177 °C

Entry CC[C@H](C)[C@H](NC(=O)c1cnccn1)C(=O)NNC(=O)c1ccncc1 [12c] — recorded melting point = 168 to 170 °C

Entry CC(C)C[C@H](NC(=O)c1cnccn1)C(=O)NNC(=O)c1ccncc1 [12a] — recorded melting point = 160 to 162 °C

Entry O=C(NNC(=O)[C@H](Cc1ccccc1)NC(=O)c1cnccn1)c1ccncc1 [12e] — recorded melting point = 177 to 179 °C

Entry CC(C)[C@H](NC(=O)c1cnccn1)C(=O)O [10b, (Pyrazine-2-carbonyl)-L-valine] — recorded melting point = 160 to 162 °C

---

# Tested on: RPE1 (normal human immortalized retinal epithelial) cell line
# measurement-description: Antiproliferative properties by MTT technique
# Type: cell-based
# experimental-conditions: RPE1 cells, 100 μM
// Percentage of cell proliferation ± SD lookup, one value per entry

Worked cases, Percentage of cell proliferation ± SD given:
[
  {
    "molecule": "CC[C@@H](C)[C@H](NC(=O)c1cnccn1)C(=O)O [10c, (Pyrazine-2-carbonyl)-L-alloisoleucine]",
    "experimental-system": "RPE1 (normal human immortalized retinal epithelial) cell line",
    "Percentage of cell proliferation ± SD": "81.8 ± 5.5%"
  },
  {
    "molecule": "O=C(NNC(=O)[C@H](Cc1c[nH]c2ccccc12)NC(=O)c1cnccn1)c1ccncc1 [12g]",
    "experimental-system": "RPE1 (normal human immortalized retinal epithelial) cell line",
    "Percentage of cell proliferation ± SD": "92.2 ± 1.2%"
  },
  {
    "molecule": "O=C(NNC(=O)[C@H](Cc1ccccc1)NC(=O)c1cnccn1)c1ccncc1 [12e]",
    "experimental-system": "RPE1 (normal human immortalized retinal epithelial) cell line",
    "Percentage of cell proliferation ± SD": "83.2 ± 5.7%"
  },
  {
    "molecule": "CC(C)C[C@H](NC(=O)c1cnccn1)C(=O)NNC(=O)c1ccncc1 [12a]",
    "experimental-system": "RPE1 (normal human immortalized retinal epithelial) cell line",
    "Percentage of cell proliferation ± SD": "80.1 ± 4.2%"
  },
  {
    "molecule": "O=C(N[C@@H](Cc1c[nH]c2ccccc12)C(=O)O)c1cnccn1 [10g, (Pyrazine-2-carbonyl)-L-tryptophan]",
    "experimental-system": "RPE1 (normal human immortalized retinal epithelial) cell line",
    "Percentage of cell proliferation ± SD": "80.1 ± 7.4%"
  },
  {
    "molecule": "CC(C)[C@H](NC(=O)c1cnccn1)C(=O)NNC(=O)c1ccncc1 [12b]",
    "experimental-system": "RPE1 (normal human immortalized retinal epithelial) cell line",
    "Percentage of cell proliferation ± SD": "96.4 ± 2.7%"
  }
]

Now consider a different molecule.
Entry CSCC[C@H](NC(=O)c1cnccn1)C(=O)O [10d, (Pyrazine-2-carbonyl)-L-methionine] — recorded Percentage of cell proliferation ± SD = 82.9 ± 8.5%

---

# Tested on: Mycobacterium marinum
# measurement-description: microbe, parasite or virus in culture
# Type: cell-based
# experimental-conditions: clinical isolate, read-out: Minimum inhibitory concentration (MIC) M. marinum
property-measured: MIC

Worked cases, MIC given:
[
  {
    "molecule": "O=C(NNC(=O)c1ccncc1)c1ccncc1 [compound 16, N′-Isonicotinoylisonicotinohydrazide]",
    "MIC": "20 µg/mL"
  },
  {
    "molecule": "O=C(NC(Cc1ccccc1)C(=O)O)c1cnccn1 (racemic) [10f, (Pyrazine-2-carbonyl)-DL-phenylalanine]",
    "MIC": "20 µg/mL"
  },
  {
    "molecule": "CC(C)[C@H](NC(=O)c1cnccn1)C(=O)O [10b, (Pyrazine-2-carbonyl)-L-valine]",
    "MIC": "> 20 µg/mL"
  }
]

Entry CC(C)C[C@H](NC(=O)c1cnccn1)C(=O)O [10a, (Pyrazine-2-carbonyl)-L-leucine] — recorded MIC = 20 µg/mL

Entry NC(=O)c1cnccn1 [PZA, pyrazinamide, reference compound] — recorded MIC = 10 µg/mL

---

# Test system: RPE1 (normal human immortalized retinal epithelial) cell line
# measurement-description: Antiproliferative properties by MTT technique
# Format: cell-based
# experimental-conditions: RPE1 cells, 100 μM
property-measured: Percentage of cell proliferation ± SD (%)
Provide the reading as a plain figure in %.

Worked cases, Percentage of cell proliferation ± SD given:
[
  {
    "compound": "CC(C)[C@H](NC(=O)c1cnccn1)C(=O)O [10b, (Pyrazine-2-carbonyl)-L-valine]",
    "measure-unit": "%",
    "Percentage of cell proliferation ± SD": 82.1
  },
  {
    "compound": "CC[C@H](C)[C@H](NC(=O)c1cnccn1)C(=O)NNC(=O)c1ccncc1 [12c]",
    "measure-unit": "%",
    "Percentage of cell proliferation ± SD": 84.6
  },
  {
    "compound": "O=C(NC(Cc1ccccc1)C(=O)O)c1cnccn1 (racemic) [10f, (Pyrazine-2-carbonyl)-DL-phenylalanine]",
    "measure-unit": "%",
    "Percentage of cell proliferation ± SD": 86.5
  }
]

Now consider a different compound.
Entry O=C(NNC(=O)c1cnccn1)c1ccncc1 — recorded Percentage of cell proliferation ± SD = 88.2

---

// MIC lookup, one value per entry
# Test system: Staphylococcus aureus
# measurement-description: Aerobic antibacterial MIC, standard dilution technique
# Assay type: cell-based
# experimental-conditions: clinical isolate, value in parentheses, read-out: Minimum inhibitory concentration (MIC) Staphylococcus aureus
# Excerpt: Antibacterial properties were investigated for the synthesized compounds against a variety of Gram-positive (Staphylococcus aureus, Enterococcus faecalis) and Gram-negative (Klebsiella pneumonia, Proteus vulgaris, Pseudomonas aeruginosa) clinical isolate bacteria utilizing the standard technique.[21]
Provide the reading as a plain figure in µM.

Item CC[C@@H](C)[C@H](NC(=O)c1cnccn1)C(=O)O [C00006] ; assay system Staphylococcus aureus; MIC reported as 67.4

Item CC(C)[C@H](NC(=O)c1cnccn1)C(=O)NNC(=O)c1ccncc1 [C00012] ; assay system Staphylococcus aureus; MIC reported as 46.7

Item NC(=O)c1cnccn1 [C00001] ; assay system Staphylococcus aureus; MIC reported as 8320

Item O=C(NNC(=O)C(Cc1ccccc1)NC(=O)c1cnccn1)c1ccncc1 (stereo not shown) [C00016] ; assay system Staphylococcus aureus; MIC reported as 41

Item O=C(NC(Cc1ccccc1)C(=O)O)c1cnccn1 (stereo not shown) [C00009] ; assay system Staphylococcus aureus; MIC reported as 59

Item CSCC[C@H](NC(=O)c1cnccn1)C(=O)O [C00007] ; assay system Staphylococcus aureus; MIC reported as 62.7

Item CC(C)C[C@H](NC(=O)c1cnccn1)C(=O)NNC(=O)c1ccncc1 [C00011] ; assay system Staphylococcus aureus; MIC reported as 5.61

Item O=C(NNC(=O)c1ccncc1)c1ccncc1 [compound 16, N′-Isonicotinoylisonicotinohydrazide] ; assay system Staphylococcus aureus; MIC reported as 16.5

Item NNC(=O)c1ccncc1 [C00002] ; assay system Staphylococcus aureus; MIC reported as 467

Item CC[C@H](C)[C@H](NC(=O)c1cnccn1)C(=O)NNC(=O)c1ccncc1 [C00013] ; assay system Staphylococcus aureus; MIC reported as 44.9
